protocol: pKa of the acid herbicide in the formulation, measured
Type: physicochemical
condition_info: 2,4-D acid in PCC-1133; glyphosate acid in PCC-1168
measurement_kind: pKa
Kindly provide the number alone.

Value lookup for pKa; key = `O=C(O)COc1ccc(Cl)cc1Cl`
2.87
